Just for reference, paper PMC12560751 is where these values come from.

Target: UniProt:P22303
Sequence (P22303 32-614): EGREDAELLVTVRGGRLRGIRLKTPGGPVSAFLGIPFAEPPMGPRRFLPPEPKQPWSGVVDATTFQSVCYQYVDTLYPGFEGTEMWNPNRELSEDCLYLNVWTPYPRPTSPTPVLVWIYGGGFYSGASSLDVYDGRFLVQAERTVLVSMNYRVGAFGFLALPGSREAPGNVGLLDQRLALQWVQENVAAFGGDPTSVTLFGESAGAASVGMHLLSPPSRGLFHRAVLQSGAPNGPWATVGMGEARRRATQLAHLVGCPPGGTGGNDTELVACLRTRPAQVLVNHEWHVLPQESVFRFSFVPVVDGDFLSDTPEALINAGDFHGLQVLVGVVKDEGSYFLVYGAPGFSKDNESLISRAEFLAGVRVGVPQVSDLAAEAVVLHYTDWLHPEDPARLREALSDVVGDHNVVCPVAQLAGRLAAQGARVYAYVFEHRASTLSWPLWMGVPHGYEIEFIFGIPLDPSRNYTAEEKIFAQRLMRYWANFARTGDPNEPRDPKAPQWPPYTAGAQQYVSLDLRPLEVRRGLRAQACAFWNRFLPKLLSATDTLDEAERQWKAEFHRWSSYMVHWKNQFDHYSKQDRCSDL
Assay: Anticholinesterase activity, modified colorimetric Ellman method
Assay type: biochemical
Conditions: read-out: AChE % inhibition
The following compounds are shown together with reported inhibition at 1000 µM values.
Write the number in % without appending the unit.

{"columns": ["compound smiles", "measurement unit", "reading"],
 "data": [
  ["COc1ccc(C(=O)C=Cc2ccc(NC(=O)CN3CCN(C)CC3)cc2)cc1OC", "%", 93.5]
]}

Recorded inhibition at 1000 µM of CCN1CCN(CC(=O)Nc2ccc(C=CC(=O)c3ccc(OC)c(OC)c3)cc2)CC1 , please.
92.6

Repeat with COc1ccc(C(=O)C=Cc2ccc(NC(=O)CN3CCN(CCCO)CC3)cc2)cc1OC
94.2

Repeat with C=CCN1CCN(CC(=O)Nc2ccc(C=CC(=O)c3ccc(OC)c(OC)c3)cc2)CC1
80.7
